Biological target: Placenta growth factor (Mus musculus)
Sequence (P49764 whole entry): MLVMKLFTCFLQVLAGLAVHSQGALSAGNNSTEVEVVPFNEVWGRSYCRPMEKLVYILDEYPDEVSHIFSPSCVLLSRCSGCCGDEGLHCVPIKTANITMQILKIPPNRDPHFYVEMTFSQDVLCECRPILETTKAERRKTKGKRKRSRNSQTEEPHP
Assay: Inhibition of mouse PlGF-VEGFR-1 interaction by ELISA
Bridge positions count the residues as written; N and C are the ends. Peptide text beside a SMILES is read from it.
Parameter: IC50. Scope: all listed entries.
Record the value in µM, omitting the unit from your answer.

### Prompt IC50 for CC[C@H](C)[C@@H]1NC(=O)[C@H](Cc2ccc(O)cc2)NC(=O)[C@H](Cc2cnc[nH]2)NC(=O)[C@@H](NC(=O)[C@@H](NC(=O)[C@H](CCC(=O)O)NC(=O)[C@H](Cc2ccccc2)NC(C)=O)C(C)C)CSSC[C@@H](C(=O)N[C@H](C(=O)N[C@@H](CCCN=C(N)N)C(=O)N[C@@H](Cc2ccc(O)cc2)C(N)=O)[C@@H](C)O)NC(=O)[C@H](Cc2cnc[nH]2)NC(=O)[C@@H]2CCCN2C(=O)[C@H](CC(C)C)NC(=O)[C@H](CCCN=C(N)N)NC1=O (Ac-FEVCHYIRLPHCTRY-NH2; disulfide 4-12) ?
### Response 0.4

***
### Prompt IC50 for `CC[C@H](C)[C@@H]1NC(=O)[C@H](Cc2ccc(O)cc2)NC(=O)[C@H](Cc2cnc[nH]2)NC(=O)[C@@H](NC(=O)[C@@H](NC(=O)[C@H](CCC(=O)O)NC(=O)[C@H](Cc2ccccc2)NC(C)=O)C(C)C)CSSC[C@@H](C(=O)N[C@@H](C(=O)N[C@H](CCCN=C(N)N)C(=O)N[C@H](Cc2ccc(O)cc2)C(N)=O)[C@@H](C)O)NC(=O)[C@H](Cc2cnc[nH]2)NC(=O)[C@@H]2CCCN2C(=O)[C@H](CC(C)C)NC(=O)[C@H](CCCCNC(=O)COCC(=O)Nc2ccc(CCC(=O)N3CCC3=O)cc2)NC1=O` ?
### Response 0.0002
